From: paper PMC12797170

- assay-comment: Plasma protein binding, equilibrium dialysis, human plasma
- Type: in vitro ADME
- experimental-setup: undiluted plasma, human plasma protein binding, read-out: PPB (hu) (converted)
Lab note: anything with fraction unbound at 4 h, 100 µM below 0.03 is marked true (1); values at 0.03 or higher are marked false (0).

>>> df
                                   molecule      group
0  O=P(O)(O)CP(=O)(O)OC[C@H]1O[C@@H](n2ccc3c(-c4ccc(-c5ccccc5)cc4)ncnc32)[C@H](O)[C@@H]1O   true (1)
1  O=P(O)(O)CP(=O)(O)OC[C@H]1O[C@@H](n2ccc3c(-c4ccco4)ncnc32)[C@H](O)[C@@H]1O  false (0)
2  Cc1nc(-c2cccc3c2CCCC3)c2ccn([C@@H]3O[C@H](COP(=O)(O)CP(=O)(O)O)[C@@H](O)[C@H]3O)c2n1 [18E.12]   true (1)
3  O=P(O)(O)CP(=O)(O)OC[C@H]1O[C@@H](n2ccc3c(-c4cccs4)ncnc32)[C@H](O)[C@@H]1O  false (0)

Request: Confirm or reject: fraction unbound at 4 h, 100 µM of O=P(O)(O)CP(=O)(O)OC[C@H]1O[C@@H](n2ccc3c(-c4cccc5c4CCCC5)nc(F)nc32)[C@H](O)[C@@H]1O [14D.12] lies strictly below 0.03
Result: true (1)

Request: Confirm or reject: fraction unbound at 4 h, 100 µM of O=P(O)(O)CP(=O)(O)OC[C@H]1O[C@@H](n2ccc3c(-c4ccc5c(c4)CCCC5)nc(I)nc32)[C@H](O)[C@@H]1O [27H.23] lies strictly below 0.03
Result: true (1)
